tested on: NCI-H1417 cells (human small-cell lung cancer cell lines); assay: cells; conditions: NCI-H1417, read-out: Cell-Growth Inhibition Test: NCI-H1417 Cells IC50 (nM)
Structures can show the parent of a compound that is named as a salt.
Listed molecules paired with reported IC50
Unit nM implied. Number only.

>>> measured_result("CC(C)(O)Cn1nc(Br)c2cc(-c3ccc(C(=O)N4[C@@H]5CC[C@H]4C[C@@H](N)C5)cc3-c3ccc(C#N)c(F)c3)c(F)cc21 [Example 178]")
3.03
>>> measured_result("CC(C)(O)Cn1ncc2cc(-c3ccc(CN4CC5(CCCNC5)C4)cc3-c3ccc(C#N)c(F)c3)c(F)cc21 [Example 298, dihydrochloride]")
1.72
>>> measured_result("Cc1c(F)c(-c2ccc(C(=O)N3[C@@H]4CC[C@H]3C[C@@H](N)C4)cc2-c2ccc(C#N)c(F)c2)cc2nnn(CC(C)(C)O)c12 [Example 240]")
2.55

Which measured IC50 value corresponds to Cn1cnc2cc(-c3ccc(C(=O)N4[C@@H]5CC[C@H]4C[C@H](N)C5)cc3-c3ccc(C#N)c(F)c3)c(F)cc21 [Example 108] ? 3.99

###

tested on: NCI-H1417 cells (human small-cell lung cancer cell lines); test: cells; details: NCI-H1417, read-out: Cell-Growth Inhibition Test: NCI-H1417 Cells IC50 (nM)
Assay metric: IC50 (nM)
Numbers only here, please. The scale is nM.

>>> measured_result("CC(C)(O)Cn1cc(C(=O)O)c2cc(-c3ccc(C(=O)N4C5CCC4C(N)C5)cc3-c3ccc(C#N)c(F)c3)c(F)cc21 (centres unmarked)")
41.8

# lookup: IC50 of CN(C)c1ccc(-c2ccc(C(=O)N3[C@@H]4CC[C@H]3C[C@@H](N)C4)cc2-c2ccc(C#N)c(F)c2)cn1 30.9

###

tested on: NCI-H1417 cells (human small-cell lung cancer cell lines); experiment: cells; conditions: NCI-H1417, read-out: Cell-Growth Inhibition Test: NCI-H1417 Cells IC50 (nM);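 note: growth of NCI-H1417 cells over 10 days at 37 °C, read as viable-cell luminescence by CellTiter-Glo 2.0, expressed as % of DMSO-only control wells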
Assay metric: IC50
I'd appreciate it if you included the unit after the number.

>>> measured_result("COCCc1ccc(-c2ccc(C(=O)N3[C@@H]4CC[C@H]3C[C@H](N)C4)cc2-c2ccc(C#N)c(F)c2)c(F)c1 [Example 26]")
"3.15 nM"
>>> measured_result("Cn1ncc2cc(-c3ccc(C(=O)N4[C@@H]5CC[C@H]4C[C@@H](N)C5)cc3-c3ccc(C#N)c(F)c3)c(F)cc21 [Example 124]")
"9.02 nM"
>>> measured_result("N#Cc1ccc(-c2cc(C(=O)N3C4CCC3C(N)C4)ccc2-c2cc3nnn(CC4(O)CCC4)c3c(F)c2F)cc1F (stereo not drawn) [Example 254]")
"0.18 nM"
>>> measured_result("CC(C)(O)Cn1nnc2cc(-c3ccc(C(=O)N4[C@@H]5CC[C@H]4C[C@@H](N)C5)cc3-c3ccc(C#N)c(F)c3)c(F)c(Br)c21 [Example 275]")
"0.59 nM"

Item CC(C)(O)Cn1nnc2cc(-c3ccc(C(=O)N4[C@@H]5CC[C@H]4C[C@@H](N)C5)cc3-c3ccc(C#N)c(F)c3)c(F)c(C(F)F)c21 [Example 250] has what recorded IC50? 1.2 nM

// returns reported IC50 for input CC(C)(O)CC1OCc2cc(-c3ccc(C(=O)N4C5CCC4C(N)C5)cc3-c3ccc(C#N)c(F)c3)c(F)cc21 (stereo not drawn) [Example 226] 5.36 nM

Value source: patent US11479563B2
